Assay: Pharmacokinetics of baricitinib in mouse plasma and brain after single SC dose (LC-MS/MS)
Format: in vivo, SCID mice
Conditions: mouse, brain (posterior fossa: cerebellum and brainstem); 50 mg/kg single SC, SCID mice; read-out: Cmax in the brain

{"columns": ["compound-smiles", "Cmax"],
 "data": [
  ["CCS(=O)(=O)N1CC(CC#N)(n2cc(-c3ncnc4[nH]ccc34)cn2)C1", "~75 ng/g"]
]}

----------
Experiment: Pharmacokinetics of baricitinib in mouse plasma and brain after single SC dose (LC-MS/MS)
Type: in vivo, SCID mice
Conditions: mouse, plasma; 10 mg/kg single SC, SCID mice; read-out: Cmax in plasma

{"columns": ["compound-smiles", "Cmax"],
 "data": [
  ["CCS(=O)(=O)N1CC(CC#N)(n2cc(-c3ncnc4[nH]ccc34)cn2)C1", "~200 ng/mL"]
]}
